Tested on: SK-MEL-28 melanoma
Assay: NCI-60 one-dose screen, 48 h (100 = growth as untreated, 0 = no growth, -100 = all killed)
Conditions: 10 µM unless noted
Procedure: Growth inhibition of the SK-MEL-28 human tumor cell line is measured as a screen for anti-cancer activity. Cells are grown in 96 well plates and exposed to the test compound for 48 hours. Compounds are tested at a single concentration, which is 10^-5 M for most compounds. The reported endpoint is percent growth (GI% or GIPRCNT), where numbers from 0 - 100% represent growth inhibition, and numbers from -100% - 0 represent cell death. For example, a value of 40 represents 60% growth inhibition. […]
About 83,000 compounds went through this panel and 20% of them were active in at least one assay; those are over-represented in the sample as a whole.
Listed here are compounds together with their documented growth.
Provide the reading as a plain figure in %.

// known answers, use as guide
{"columns": ["Compound", "growth, %"],
 "data": [
  ["c1ccc(-c2nc3sc(C(c4ccccc4)c4ccccc4)nn3c2-c2ccccc2)cc1", 102],
  ["NS(=O)(=O)c1ccc(Nc2nc(O)c(/C=C3\\C=Nc4ccccc43)s2)cc1", 110],
  ["NC(=NCCCOc1ccc(F)cc1)Nc1ccc(Cl)c(Cl)c1", 94.3],
  ["COc1ccccc1C(OC(C)=O)OC(C)=O", 109],
  ["CC1=C[S+](c2ccccc2)c2cccc3cc4ccccc4c1c23 (stereo not given)", 11.5]
]}

-- ask Form field: reported growth of COc1ccc2c(c1)nnn1c3ncccc3c(N=O)c21
-- reply 16.2

-- ask // returns reported growth for input COc1ccc(Cl)cc1NC(=O)c1cc2c(n1C)-c1nc(NC(=O)C(C)C)sc1CC2
-- reply 95.1

-- ask Fill in: growth of [2H]c1nc(Nc2ncc(F)c(-c3cc(F)c4nc(C)n(C(C)C)c4c3)n2)c([2H])c([2H])c1CN1CCN(CC)CC1 is ___
-- reply 60.5

-- ask Please report the recorded growth for COc1ccc(NC(=O)Nc2ccc(-c3ccc(OC)c(OC)c3)nc2C)cc1 .
-- reply 86.8

-- ask # query: growth of entry COC(=O)c1ccc(NC(N)=NCC(C)(C)COc2ccc(C(F)(F)F)cc2)nc1
-- reply 90.1

----------
tested on: SK-OV-3 ovarian; test: NCI-60 one-dose screen, 48 h (100 = growth as untreated, 0 = no growth, -100 = all killed); details: 10 µM unless noted
The panel holds about 83,000 compounds, 20% with a hit somewhere; the sample as a whole holds those more often.
Measured attribute: growth (%)
Give the value in % but do not write % after it.

Below are worked cases with known answers.
{"columns": ["Compound", "Readout value"],
 "data": [
  ["C=C1C(=O)O[C@H]2[C@H]1CC/C(COC(=O)OC/C1=C/CC[C@@]3(C)O[C@H]3[C@H]3OC(=O)[C@@H](CN(C)C)[C@@H]3CC1)=C\\CC[C@@]1(C)O[C@@H]21", 87.7],
  ["CC(=S)Nc1ccccc1", 87.6],
  ["Cc1cccc(CC(=O)c2ccccc2)n1", 92.2],
  ["COc1cc(Cn2cc3c(c2)-c2onc(CO)c2CC3)cc(OC)c1OC", 112]
]}

-- ask Could you tell me which growth is on file for C=C1C(=O)O[C@H]2[C@H]1CC/C(COC(=O)c1cc(OC)c(OC)c(OC)c1)=C\CC[C@@]1(C)O[C@@H]21 ?
-- reply 97.6

-- ask Query: growth; subject: O=C(COc1ccc(Cl)cc1Cl)N1N=C(c2ccc(Cl)cc2Cl)CC1(O)c1cc(F)c(Cl)cc1Cl (centres undefined)
-- reply 110

-- ask Request the reported growth associated with O=C1c2ccccc2C(=O)c2c(NCCN=Cc3c(O)ccc4ccccc34)cccc21
-- reply 84.2

-- ask Fill blank: measured growth of the compound CCCOC(=O)c1ccc([N+](=O)[O-])o1 is ____.
-- reply 113

-- ask I have this compound here, CCC1S/C(=N\N=C(/C)c2cccs2)N(c2ccccc2)C1=O (centres undefined) , and I need its recorded growth.
-- reply 121

-- ask Need growth, item c1ccc2nc(Cn3cc[n+](Cc4ccc5ccccc5n4)c3)ccc2c1
-- reply 86.9

-- ask Returns the measured growth for the input compound. Input: Oc1ccc(O)c(-[n+]2ccccc2)c1
-- reply 98.7

-- ask I am curious: what growth value has been reported for O=C(Cn1c2ccccc2c2ccncc21)N/N=C/c1cc(O)c(O)c(O)c1 ?
-- reply 99.4

-- ask Requested field: growth. Item: COc1ccc(-c2nn(-c3ccc(NC(=O)Nc4ccc(Cl)c(Cl)c4)cc3)cc2-c2ccncc2)cc1Cl
-- reply 34.6

-- ask What measured growth goes with Cc1cc(O[C@@H]2O[C@@H](C)[C@H](O)[C@@H](O)[C@H]2O)c2c3c(c(O[C@@H]4O[C@@H](C)[C@H](O)[C@@H](O)[C@H]4O)cc2c1)C(=O)c1c(O)cccc1C3=O ?
-- reply 83.6

-- ask Tell me the measured growth of O=C(Nc1ccccc1Cl)c1c[nH]c(=O)c(-c2ccc(N3CCCOC4(CC4)C3)cc2)c1 , please.
-- reply 74.6

-- ask Which growth is reported for this compound? COc1ccc(-c2cc3ccc(N(C)C)cc3nc2N)c(F)c1
-- reply 46.8

-- ask # input compound: COc1ccc2c(c1)/C(=C/c1c(-c3cc(OC)c(OC)c(OC)c3Br)nc3sccn13)C(=O)N2 ; wanted: its growth
-- reply 96.6

-- ask Need growth of COc1ccc2c(c1)OC(N(C(C)=O)C(C)=O)=C(C#N)C2c1ccc(F)cc1 (centres undefined) , thanks.
-- reply 23.9

-- ask Please look up its growth: O=C(/C=C/c1ccccc1)Oc1ccc(/C=C/c2cc(OC(=O)/C=C/c3ccccc3)cc(OC(=O)/C=C/c3ccccc3)c2)cc1
-- reply 86.5

----------
system: SF-295 CNS; test: NCI-60 one-dose screen, 48 h (100 = growth as untreated, 0 = no growth, -100 = all killed); details: 10 µM unless noted
Compounds without any hit were thinned out: in the full panel of roughly 83,000, 20% have a hit.
Measured attribute: growth (%)
// units = %; emit number, no label

-- ask Any idea what its growth is? The compound is C=CC(=O)NC(=O)Nc1ccccc1Cl
-- reply 101

-- ask Item under review: Nc1ccc(S(=O)(=O)Nc2cc(I)cc(I)c2)cc1 . Reported growth?
-- reply 113

-- ask GET /values?readout=growth&item= CC(=O)N1N=C2N(Cc3ccccc3)C(=O)c3c(sc4c3CCCC4)N2C1c1cn(-c2ccccc2)nc1-c1ccc(Cl)cc1 (stereo not given)
-- reply 109

----------
test system: OVCAR-3 ovarian; assay: NCI-60 one-dose screen, 48 h (100 = growth as untreated, 0 = no growth, -100 = all killed); conditions: 10 µM unless noted
The panel holds about 83,000 compounds, 20% with a hit somewhere; the sample as a whole holds those more often. The source made the active and inactive calls. Rule for the calls: active = growth percent below 10; inactive = the rest.
Measured attribute: growth

Examples with answers:
{"columns": ["Molecule", "Readout value"],
 "data": [
  ["CCn1cc(/C=C2\\Oc3cc(OCC#N)ccc3C2=O)c2cc(OC)ccc21", "-6.84% (active)"],
  ["C#C[C@@]1(O)[C@@H](CO)O[C@@H](n2cc(C(F)(F)F)c3c(N)ncnc32)[C@@H]1O", "-2.07% (active)"],
  ["CC(=O)Nc1ccc([I+]c2ccc([N+](=O)[O-])cc2)cc1", "94.9% (inactive)"],
  ["Cc1nc(-c2ccc(Cl)cc2)ccc1NC(=O)Nc1cccc(C(F)(F)F)c1", "111% (inactive)"],
  ["Cc1cn(-c2nc3c(c(NCc4ccccc4)n2)COCC3)c2cccc(C(N)=O)c12", "91.5% [0.5 µM] (inactive)"],
  ["CC(C)[C@@H]1NC(=O)[C@]2(C)CSC(=N2)c2ccnc(c2)CNC(=O)C[C@@H](/C=C/CCS)OC1=O", "-6.18% (active)"],
  ["C[C@@H]1CC2C3C[C@H](F)C4=CC(=O)C=C[C@]4(C)[C@@]3(F)[C@@H](O)C[C@]2(C)[C@@]1(O)C(=O)CO (stereo not given in full)", "113% (inactive)"],
  ["NC(N)=N/N=C/c1ccc([N+](=O)[O-])cc1", "117% (inactive)"]
]}

# input for lookup
-- ask State the recorded growth for this entry: CC(CN(C)C)CN1c2ccccc2CCc2ccccc21 (stereo not given)
-- reply 111% (inactive)

----------
Test system: SF-539 CNS
Experiment: NCI-60 one-dose screen, 48 h
Details: 10 µM unless noted
Procedure: Cells are grown in 96 well plates and exposed to the test compound for 48 hours. Compounds are tested at a single concentration, which is 10^-5 M for most compounds. The reported endpoint is percent growth (GI% or GIPRCNT), where numbers from 0 - 100% represent growth inhibition, and numbers from -100% - 0 represent cell death. For example, a value of 40 represents 60% growth inhibition. A value of 0 means no net growth occurred over the course of the experiment. […]
The panel holds about 83,000 compounds, 20% with a hit somewhere; the sample as a whole holds those more often. Active and inactive are the calls of the source. Rule for the calls: active = growth percent below 10; inactive = the rest.
Tick one outcome: active, inactive

-- ask Look up the recorded call for CCc1c2cc(Cl)ccc2n2cc(Cc3ccccc3)[nH]c(=O)c12 in this test.
-- reply inactive
